- Procedure Text: Cmax in Sprague-Dawley rat at 20 mg/kg, po dosed as single administration
- Assay type: ADME, organism-based
- Set-up: dose 20 mg/kg, route oral
- Condition Summary: in vivo
Property Measured: Cmax (ng/mL)

[
  {
    "Smiles Record": "Cc1cc(-c2ccc(F)nc2F)nn(Cc2ccc(Cl)cc2)c1=O",
    "Property Measured": "Cmax",
    "Endpoint Value": 352
  }
]

* * *

- Procedure Text: Drug metabolism in monkey liver microsomes at 3 uM in presence of NADPH incubated for 60 mins by UPLC-UV/QTOF MS analysis relative to control
- Type: ADME, Macaca mulatta, Microsome
- Condition Summary: rhesus monkey, read-out: Drug metabolism

[
  {
    "Smiles Record": "Cc1cc(-c2ccc(F)nc2F)nn(Cc2ccc(Cl)cc2)c1=O",
    "Units Label": "%",
    "metabolised at 1 h, 3 µM": 73
  }
]

* * *

- Procedure Text: Tmax in Sprague-Dawley rat at 20 mg/kg, po dosed as single administration
- Format: ADME, organism-based
- Condition Summary: in vivo

[
  {
    "Smiles Record": "Cc1cc(-c2ccc(F)nc2F)nn(Cc2ccc(Cl)cc2)c1=O",
    "Units Label": "min",
    "Tmax": 15
  }
]

* * *

Readings of Vd for the listed molecules
- System: mouse (Mus musculus)
- Procedure Text: Observed volume of distribution at steady state in mouse at 2 mg/kg, iv dosed as single administration
- Condition Summary: in vivo, read-out: Vdss
Property Measured: Vd (L/kg)

[
  {
    "Molecule": "COCCNc1nc(F)c(-c2nn(Cc3ccc(C#N)cc3)c(=O)c3ccccc23)cc1Cl",
    "Property Measured": "Vd",
    "Endpoint Value": 3.09
  },
  {
    "Molecule": "N#Cc1ccc(Cn2nc(-c3cc(Cl)c(NCCO)nc3F)c3ccccc3c2=O)cc1",
    "Property Measured": "Vd",
    "Endpoint Value": 5.44
  },
  {
    "Molecule": "N#Cc1ccc(Cn2nc(-c3cc(Cl)c(NCC(O)CO)nc3F)c3ccccc3c2=O)cc1 (stereo not drawn)",
    "Property Measured": "Vd",
    "Endpoint Value": 0.766
  }
]

* * *

- System: mouse (Mus musculus)
- Procedure Text: Tmax in mouse at 2 mg/kg, iv dosed as single administration
- Condition Summary: in vivo

[
  {
    "Smiles Record": "N#Cc1ccc(Cn2nc(-c3cc(Cl)c(NCCO)nc3F)c3ccccc3c2=O)cc1",
    "Tmax": "15 min"
  }
]

* * *

- Tested on: mouse (Mus musculus)
- Procedure Text: AUC (0 to infinity) in mouse at 2 mg/kg, iv dosed as single administration
- Condition Summary: in vivo
Property Measured: AUC(0-inf)

[
  {
    "Compound": "N#Cc1ccc(Cn2nc(-c3cc(Cl)c(NCC(O)CO)nc3F)c3ccccc3c2=O)cc1 (configuration not stated)",
    "Endpoint Value": "8250 ng·h/mL"
  },
  {
    "Compound": "COCCNc1nc(F)c(-c2nn(Cc3ccc(C#N)cc3)c(=O)c3ccccc23)cc1Cl",
    "Endpoint Value": "3070 ng·h/mL"
  }
]

* * *

- Procedure Text: Cytotoxicity in human HepG2.2.15 cells assessed as reduction in cell viability incubated for 8 days by MTT assay
- Assay type: cell-based, HepG2 2.2.15

[
  {
    "Molecule": "COCCNc1ccc(-c2nn(Cc3ccc(C#N)cc3)c(=O)c3ccccc23)c(F)n1",
    "Operator Symbol": ">",
    "CC50 at 192 h / µM": 100
  },
  {
    "Molecule": "O=c1c2c(c(-c3ccc(F)nc3F)nn1Cc1ccc(Cl)cc1)CCCC2",
    "Operator Symbol": "=",
    "CC50 at 192 h / µM": 31
  },
  {
    "Molecule": "COCCNc1nc(F)c(-c2nn(Cc3ccc(C#N)cc3)c(=O)c3ccccc23)cc1Cl",
    "Operator Symbol": ">",
    "CC50 at 192 h / µM": 100
  },
  {
    "Molecule": "Cc1cc(-c2ccc(F)nc2F)cn(Cc2ccc(Cl)cc2)c1=O",
    "Operator Symbol": "=",
    "CC50 at 192 h / µM": 90.8
  },
  {
    "Molecule": "O=c1c(CO)cc(-c2ccc(F)nc2F)nn1Cc1ccc(Cl)cc1",
    "Operator Symbol": ">",
    "CC50 at 192 h / µM": 100
  },
  {
    "Molecule": "CNc1ccc(-c2nn(Cc3ccc(C#N)cc3)c(=O)c3ccccc23)c(F)n1",
    "Operator Symbol": ">",
    "CC50 at 192 h / µM": 100
  },
  {
    "Molecule": "O=C(O)c1cc(-c2ccc(F)nc2F)nn(Cc2ccc(Cl)cc2)c1=O",
    "Operator Symbol": ">",
    "CC50 at 192 h / µM": 100
  },
  {
    "Molecule": "Cc1ccc(-c2nn(Cc3ccc(C#N)cc3)c(=O)c3ccccc23)c(F)n1",
    "Operator Symbol": ">",
    "CC50 at 192 h / µM": 100
  },
  {
    "Molecule": "CN(C)CCNc1nc(F)c(-c2nn(Cc3ccc(C#N)cc3)c(=O)c3ccccc23)cc1Cl",
    "Operator Symbol": "=",
    "CC50 at 192 h / µM": 9.76
  },
  {
    "Molecule": "CC(C)c1cc(-c2ccc(F)nc2F)nn(Cc2ccc(Cl)cc2)c1=O",
    "Operator Symbol": "=",
    "CC50 at 192 h / µM": 56.7
  },
  {
    "Molecule": "CN(C)c1ccc(-c2nn(Cc3ccc(C#N)cc3)c(=O)c3ccccc23)c(F)n1",
    "Operator Symbol": "=",
    "CC50 at 192 h / µM": 79.2
  },
  {
    "Molecule": "N#Cc1ccc(Cn2nc(-c3cc(Cl)c(NCC(O)CO)nc3F)c3ccccc3c2=O)cc1 (stereo not given)",
    "Operator Symbol": ">",
    "CC50 at 192 h / µM": 100
  },
  {
    "Molecule": "N#Cc1ccc(Cn2nc(-c3cc(Cl)c(NCCC(=O)O)nc3F)c3ccccc3c2=O)cc1",
    "Operator Symbol": ">",
    "CC50 at 192 h / µM": 100
  },
  {
    "Molecule": "COc1ccccc1/C(Br)=C(/NC(=O)c1ccc([N+](=O)[O-])cc1)C(=O)N1CCCCC1",
    "Operator Symbol": ">",
    "CC50 at 192 h / µM": 20
  },
  {
    "Molecule": "Cc1c(-c2ccc(F)nc2F)nn(Cc2ccc(Cl)cc2)c(=O)c1C",
    "Operator Symbol": "=",
    "CC50 at 192 h / µM": 52.9
  }
]
